biological target: Melanin-concentrating hormone receptor 1 (Homo sapiens, UniProt Q99705); experiment: Displacement of [125I]-MCH(4 to 19) from human MCHR1 expressed in CHO cell membranes after 1 hr by liquid scintillation counting
Sequence (Q99705 whole entry): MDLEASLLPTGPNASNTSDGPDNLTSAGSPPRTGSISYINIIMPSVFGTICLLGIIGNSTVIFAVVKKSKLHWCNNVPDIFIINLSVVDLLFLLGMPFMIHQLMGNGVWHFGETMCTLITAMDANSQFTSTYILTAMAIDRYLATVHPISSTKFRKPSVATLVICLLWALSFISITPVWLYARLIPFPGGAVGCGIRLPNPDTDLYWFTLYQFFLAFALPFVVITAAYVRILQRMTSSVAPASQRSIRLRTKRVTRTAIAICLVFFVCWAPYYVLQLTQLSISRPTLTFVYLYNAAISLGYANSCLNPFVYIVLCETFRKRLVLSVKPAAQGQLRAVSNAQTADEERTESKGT
IC50 values by entry
Quick reminder: number only, in nM, skip the unit.

Enquiry: Requested field: IC50. Item: Cn1c(C2CC2)nc2ccc(-n3ccc(OCc4cccs4)cc3=O)cc21
Return: 76

Enquiry: Requested field: IC50. Item: Cc1c(C2CC2)nc2ccc(-n3ccc(OCc4ccc(Cl)cc4)cc3=O)nn12
Return: 380

Enquiry: Requested field: IC50. Item: Cn1c(C2CC2)nc2ccc(-n3ccc(OCc4ccsc4)cc3=O)cc21
Return: 28

Enquiry: Requested field: IC50. Item: CCCn1c(C2CC2)nc2ccc(-n3ccc(OCc4ccc(Cl)cc4)cc3=O)cc21
Return: 85

Enquiry: Requested field: IC50. Item: Cn1c(C2CC2)nc2ccc(-n3ccc(OCc4csc(C(F)(F)F)c4)cc3=O)cc21
Return: 41
